Cited source for all entries: patent US5981558A

Test system: HeLa S3 cells
Measurement Notes: HeLa S3 Cell Growth Inhibition Test
Assay type: cell-based
Condition Description: Homo sapiens, HeLa S3, 72 h, HeLa S3; 72 hours incubation; Neutral Red; read-out: IC50, HeLa S3 cell growth inhibition
pIC50: −log10 of the molar value.
Consider the following compounds and their measured pIC50 readings.

Compound	pIC50
CC1=CC(O)C(=O)C=CC=Cc2csc(n2)C(C)N2C(=O)CC(C(C)(O)C(=O)SCOC(=O)C(C)(C)NC(=O)OCc3ccccc3)(CC1)[S+]2[O-] (stereo not drawn) [Compound 3]	6.89
COCCOCCOCC(=O)OCSC(=O)C(C)(O)C12CCC(C)=CC(O)C(=O)C=CC=Cc3csc(n3)C(C)N(C(=O)C1)[S+]2[O-] (stereo not drawn) [Compound 35]	7.66
COc1ccc(COCC(=O)OCSC(=O)C(C)(O)C23CCC(C)=CC(O)C(=O)C=CC=Cc4csc(n4)C(C)N(C(=O)C2)[S+]3[O-])cc1 (stereo not drawn) [Compound 13]	7.96

###

System: EH: Enterococcus hirae ATCC 10541
Measurement Notes: Antimicrobial activity by the agar dilution method (MIC)
Type: cell-based
Condition Description: pH 7
Measured Parameter: minimum inhibitory concentration (MIC), EH (mg/L)

Molecule	Units Text	Numeric Value
C/C1=C\C(O)C(=O)/C=C/C=C\c2csc(n2)C(C)N2C(=O)CC(C(C)(O)C(=O)SCOC(=O)CCCN3CCCC3=O)(CC1)[S+]2[O-] (stereo not shown) [Compound 145]	mg/L	7.7
C/C1=C\C(O)C(=O)/C=C/C=C\c2csc(n2)C(C)N2C(=O)CC(C(C)(O)C(=O)SCOC(=O)CCCNC(=O)[C@@H]3CCC(=O)N3)(CC1)[S+]2[O-] (stereo partly shown) [Compound 144]	mg/L	5.8
C/C1=C\C(O)C(=O)/C=C/C=C\c2csc(n2)C(C)N2C(=O)CC(C(C)(O)C(=O)SCc3oc(=O)oc3COC(=O)CN(C)C)(CC1)[S+]2[O-] (stereo not shown) [Compound 158]	mg/L	0.33
C/C1=C\C(O)C(=O)/C=C/C=C\c2csc(n2)C(C)N2C(=O)CC(C(C)(O)C(=O)SCOC(=O)CCCNC(=O)C(C)(CO)CO)(CC1)[S+]2[O-] (stereo not shown) [Compound 139]	mg/L	12

###

System: Sarcoma 180 mouse solid tumor
Measurement Notes: Antitumor activity against Sarcoma 180 mouse solid tumor
Format: in vivo, mouse (ddY)
Condition Description: Sarcoma-180, iv, 168 h, 8.0 mg/kg i.v. once, 24 hours after transplant, tumor volume on day 7, read-out: T/C (tumor volume ratio treated/control)
# maps each entry to its response vs control in vivo at 8 mg/kg
Measured Parameter: response vs control in vivo at 8 mg/kg (%)

Molecule	Measured Parameter	Units Text	Numeric Value
CC(=O)Oc1ccc(C(=O)OCSC(=O)C(C)(O)C23CC/C(C)=C/C(OC4CCCCO4)C(=O)/C=C/C=C\c4csc(n4)C(C)N(C(=O)C2)[S+]3[O-])cc1 (centres unmarked)	response vs control in vivo at 8 mg/kg	%	50
CC1=CC(OC2CCCCO2)C(=O)C=CC=Cc2csc(n2)C(C)N2C(=O)CC(C(C)(O)C(=O)SCOC(=O)C(C)(C)NC(=O)OCc3ccccc3)(CC1)[S+]2[O-] (single isomer, unassigned)	response vs control in vivo at 8 mg/kg	%	30
COCCOCC(=O)OCc1oc(=O)oc1CSC(=O)C(C)(O)C12CC/C(C)=C/C(O)C(=O)/C=C/C=C\c3csc(n3)C(C)N(C(=O)C1)[S+]2[O-] (centres unmarked)	response vs control in vivo at 8 mg/kg	%	40
CC1=CC(OC2CCCCO2)C(=O)C=CC=Cc2csc(n2)C(C)N2C(=O)CC(C(C)(O)C(=O)SCOC(=O)C3CCC(C(=O)O)CC3)(CC1)[S+]2[O-] (centres unmarked)	response vs control in vivo at 8 mg/kg	%	47
COCOCc1oc(=O)oc1CSC(=O)C(C)(O)C12CC/C(C)=C/C(OC3CCCCO3)C(=O)/C=C/C=C\c3csc(n3)C(C)N(C(=O)C1)[S+]2[O-] (centres unmarked)	response vs control in vivo at 8 mg/kg	%	50
